Cited source for all entries: PubChem BioAssay (NCI)

- Tested on: HT29 colon
- measurement_protocol: NCI tumour cell line growth inhibition, 48 h
Given measured TGI, output class 1 if it is greater than or equal to 30 µM and class 0 if not.

compound | class
CCOC(=O)/C=C1\SC(=Nc2ccc(C#N)cc2)N(CCN2C(=O)/C(=C/C(=O)OCC)SC2=Nc2ccc(C#N)cc2)C1=O | class 0

Enquiry: Check this compound for TGI at or above 30 µM: CCN1/C(=C/c2ccc3ccccc3[n+]2CC)C=Cc2ccccc21
Return: class 0

* * *

I'd be grateful if you could share measured TGI for these entries.
- Tested on: HCT-116 colon
- measurement_protocol: NCI tumour cell line growth inhibition, 48 h
Give bare numbers, in µM.

Record excerpt, results attached:
compound | target | TGI [µM]
NC(=O)c1[nH]nc(C2OC(CO)C(O)C2O)c1O (centres undefined) | HCT-116 colon | 3770
CCOC(OCC)C(CC)[Se]c1ccccc1[N+](=O)[O-] (centres undefined) | HCT-116 colon | 30.2
C=C(CN1CCN(c2cccc(C(F)(F)F)c2)CC1)c1ccc(C(=O)Nc2ccccc2N)cc1 | HCT-116 colon | 11.7
CC1=C(C2=C(C)C(=O)C(=O)c3cc(C)ccc32)c2ccc(C)cc2C(=O)C1=O | HCT-116 colon | 1
N#C/C(=C/C=C(\Cl)c1ccc(Cl)cc1)C(N)=O | HCT-116 colon | 1.49

Give me TGI for each of these compounds, listed below.
1. Cc1cc2c(cc1O)CC[C@@H]1[C@@H]2CC[C@]2(C)[C@@H](O)CC[C@@H]12
2. C=C(CNCCc1ccc(O)cc1)[C@@H]1CC[C@]2(CO)CC[C@]3(C)[C@H](CC[C@@H]4[C@@]5(C)CCC(=O)C(C)(C)[C@@H]5CC[C@]43C)[C@@H]12
3. COc1cc(NN=C(c2ccc(O)cc2)c2ccc(O)cc2)c([N+](=O)[O-])cc1[N+](=O)[O-]
4. O=C1C=CC(=O)C1(Br)Br

Return:
1. 13.4
2. 3.03
3. 21.8
4. 20.9

Query CCOC(=O)/C=C1\SC(=Nc2ccc(C#N)cc2)N(CCN2C(=O)/C(=C/C(=O)OCC)SC2=Nc2ccc(C#N)cc2)C1=O yields TGI of 2.38
